B1: SNX8 (parent)
chain: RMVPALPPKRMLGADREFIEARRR

# Variants of: B1
# assay_name: protein stability index of a GFP-peptide fusion (GPS, HEK-293T) (PSI 1-6); higher = more stable;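 note: lentivirally expressed fusions sorted by FACS into six bins by GFP to DsRed ratio, PSI derived from sequencing read proportions per bin multiplied by bin number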
# conditions: c terminus: a fixed tail appended
Quick reference: protein stability index of the listed items.
The response must contain the number and no unit.

# variant_notation, protein stability index
rows = [
    ("G13T", 3.14),
    ("R24S", 3.46),
    ("K9A", 4.09),
    ("E20R", 4.28),
    ("E17A", 3.55),
]

Lab note: measured protein stability index of R22S was 3.75

meta.source: the supplement of paper PMC10567573
